Measured values drawn from PubChem BioAssay (NCI) for this set.

System: SK-MEL-5 melanoma
Assay: NCI-60 one-dose screen, 48 h (100 = growth as untreated, 0 = no growth, -100 = all killed)
Details: 10 µM
The panel holds about 83,000 compounds, 20% with a hit somewhere; the sample as a whole holds those more often.
endpoint: growth (%)
Write down the numeric answer in % and omit the unit.

Return reported growth; argument: Cc1ccc(S(=O)(=O)O)c(C)c1
105

Return reported growth; argument: CC1CCC(C(=O)O)N1 (stereo not drawn)
102

Return reported growth; argument: C/C(=N\O)C1(O)CCCCC1
87.9

Return reported growth; argument: O=C(NCCNC(=O)c1ccc(Cl)cc1Cl)c1ccc(Cl)cc1Cl
98.5

Return reported growth; argument: C=CC(O)CCC (stereo not drawn)
107

Return reported growth; argument: CC(C)(C)c1cc(O)c(C(C)(C)C)cc1O
67.8

Return reported growth; argument: CC1(C)N=C(N)N=C(N)N1c1cccc(Br)c1
26.7

Return reported growth; argument: CCCC(=O)c1cc(C)ccc1OC
104
